Origin of the recorded values: paper PMC10681907

molecular target: Rph1 (Saccharomyces cerevisiae, UniProt P39956)
Sequence (P39956 whole entry): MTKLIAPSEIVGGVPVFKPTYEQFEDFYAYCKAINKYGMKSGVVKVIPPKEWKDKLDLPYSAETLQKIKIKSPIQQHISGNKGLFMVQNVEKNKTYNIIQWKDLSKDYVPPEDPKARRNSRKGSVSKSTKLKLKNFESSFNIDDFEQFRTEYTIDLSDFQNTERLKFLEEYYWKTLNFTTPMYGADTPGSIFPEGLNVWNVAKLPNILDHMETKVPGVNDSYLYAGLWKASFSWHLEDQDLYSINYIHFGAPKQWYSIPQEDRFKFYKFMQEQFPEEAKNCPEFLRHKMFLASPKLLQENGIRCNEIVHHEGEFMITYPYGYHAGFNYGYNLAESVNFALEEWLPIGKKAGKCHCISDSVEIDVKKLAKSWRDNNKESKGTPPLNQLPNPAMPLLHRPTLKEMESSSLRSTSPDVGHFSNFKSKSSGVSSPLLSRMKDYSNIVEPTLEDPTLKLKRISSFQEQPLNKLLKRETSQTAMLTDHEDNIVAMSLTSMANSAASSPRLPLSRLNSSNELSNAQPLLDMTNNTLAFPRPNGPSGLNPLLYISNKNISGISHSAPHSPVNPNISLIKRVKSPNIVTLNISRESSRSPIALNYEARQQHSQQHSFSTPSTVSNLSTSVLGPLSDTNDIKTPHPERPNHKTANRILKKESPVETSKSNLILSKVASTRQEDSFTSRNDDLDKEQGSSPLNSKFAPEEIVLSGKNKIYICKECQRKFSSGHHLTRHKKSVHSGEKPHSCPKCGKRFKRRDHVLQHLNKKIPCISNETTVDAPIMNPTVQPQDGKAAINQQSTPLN
MEASUREMENT_TYPE: IC50

[
  {
    "COMPOUND": "O=C(O)CC[C@@H](O)C(=O)O [2-HG]",
    "REPORTED": "~1300 µM"
  }
]

----------
molecular target: Gis1 (Saccharomyces cerevisiae, UniProt Q03833)
Sequence (Q03833 whole entry): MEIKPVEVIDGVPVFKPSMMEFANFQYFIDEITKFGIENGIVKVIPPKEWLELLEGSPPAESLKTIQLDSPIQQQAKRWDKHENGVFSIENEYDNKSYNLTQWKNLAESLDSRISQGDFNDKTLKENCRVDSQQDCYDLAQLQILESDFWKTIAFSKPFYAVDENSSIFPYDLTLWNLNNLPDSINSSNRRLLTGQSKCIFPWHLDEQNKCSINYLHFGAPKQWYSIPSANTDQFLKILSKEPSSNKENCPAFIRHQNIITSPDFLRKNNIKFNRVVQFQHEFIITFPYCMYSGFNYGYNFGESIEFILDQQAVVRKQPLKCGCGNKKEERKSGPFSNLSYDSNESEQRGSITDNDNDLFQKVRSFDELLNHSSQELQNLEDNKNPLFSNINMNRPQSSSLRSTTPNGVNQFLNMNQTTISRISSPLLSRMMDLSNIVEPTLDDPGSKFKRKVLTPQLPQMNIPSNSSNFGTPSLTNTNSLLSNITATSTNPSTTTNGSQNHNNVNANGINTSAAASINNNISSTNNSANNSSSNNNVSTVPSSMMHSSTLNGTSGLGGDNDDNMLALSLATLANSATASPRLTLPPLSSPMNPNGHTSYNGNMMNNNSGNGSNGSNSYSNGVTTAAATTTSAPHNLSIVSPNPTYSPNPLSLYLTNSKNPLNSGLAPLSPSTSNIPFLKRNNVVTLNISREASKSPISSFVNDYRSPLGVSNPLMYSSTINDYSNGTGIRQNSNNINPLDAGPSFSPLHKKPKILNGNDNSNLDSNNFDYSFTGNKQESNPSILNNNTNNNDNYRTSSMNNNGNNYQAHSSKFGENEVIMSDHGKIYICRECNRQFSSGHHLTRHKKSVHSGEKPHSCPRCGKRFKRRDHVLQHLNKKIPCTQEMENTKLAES
pIC50: −log10 of the molar value.

[
  {
    "MOL": "O=C(O)CC[C@@H](O)C(=O)O",
    "pIC50": "~2.51"
  }
]

----------
Target protein (sequence): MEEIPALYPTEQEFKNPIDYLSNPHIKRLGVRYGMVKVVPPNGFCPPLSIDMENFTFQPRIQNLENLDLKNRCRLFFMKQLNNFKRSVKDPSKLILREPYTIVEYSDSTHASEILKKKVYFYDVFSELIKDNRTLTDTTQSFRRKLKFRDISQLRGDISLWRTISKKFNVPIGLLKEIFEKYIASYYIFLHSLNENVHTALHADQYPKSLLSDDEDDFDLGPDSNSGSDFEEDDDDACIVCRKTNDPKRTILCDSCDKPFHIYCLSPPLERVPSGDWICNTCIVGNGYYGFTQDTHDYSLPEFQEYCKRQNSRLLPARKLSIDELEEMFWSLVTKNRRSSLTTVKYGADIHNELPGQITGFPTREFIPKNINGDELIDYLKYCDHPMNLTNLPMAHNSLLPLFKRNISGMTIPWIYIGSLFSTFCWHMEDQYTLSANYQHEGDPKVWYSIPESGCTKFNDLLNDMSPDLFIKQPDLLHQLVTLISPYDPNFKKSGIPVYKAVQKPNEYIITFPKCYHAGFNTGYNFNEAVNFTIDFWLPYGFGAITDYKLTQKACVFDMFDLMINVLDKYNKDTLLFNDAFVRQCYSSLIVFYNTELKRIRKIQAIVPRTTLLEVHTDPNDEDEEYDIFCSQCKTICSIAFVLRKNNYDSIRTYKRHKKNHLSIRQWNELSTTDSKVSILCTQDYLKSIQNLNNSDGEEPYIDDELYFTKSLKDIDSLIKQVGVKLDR
MEASUREMENT_TYPE: IC50

[
  {
    "MOL": "O=C(O)CC[C@@H](O)C(=O)O",
    "REPORTED": "~2200 µM"
  }
]
